Origin of values: the supplement of paper PMC9112550

System: Escherichia coli TOP10;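 further: peptides expressed intracellularly from a pBAD plasmid library in pooled LB shake-flask culture, induced with 0.3% L-arabinose, DNA abundance read by NGS, three biological replicates, DESeq2 with apeglm shrinkage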
Experiment: shrunken log2 fold change of peptide-encoding DNA abundance (4.5 h post-induction vs induction); higher = less antimicrobial activity (less host growth inhibition)
Conditions: time post-induction: 4.5 h; library: site-saturation at positions 5, 18, 19, 20
Mark Criterion met for reported shrunken log2 fold change of -0.02 or greater; mark Criterion not met for anything smaller.

Sequence record | Label class
RRIRRRPPRLPRPRPRPNGPPRP | Criterion met
RRIRQRPPRLPRPRPRPPMSPRP | Criterion not met
RRIRIRPPRLPRPRPRPWEDPRP | Criterion not met
RRIRHRPPRLPRPRPRPVFEPRP | Criterion not met
RRIRHRPPRLPRPRPRPNGEPRP | Criterion met
RRIRVRPPRLPRPRPRPHIFPRP | Criterion not met
RRIRMRPPRLPRPRPRPTRWPRP | Criterion met
RRIRYRPPRLPRPRPRPKFFPRP | Criterion met
RRIRHRPPRLPRPRPRPNIPPRP | Criterion not met
RRIRSRPPRLPRPRPRPAHIPRP | Criterion met
RRIRPRPPRLPRPRPRPPRWPRP | Criterion met
RRIRYRPPRLPRPRPRPLVAPRP | Criterion not met
RRIRARPPRLPRPRPRPQTDPRP | Criterion met
RRIRIRPPRLPRPRPRPYPAPRP | Criterion not met
RRIRYRPPRLPRPRPRPIHNPRP | Criterion not met
